The measured values listed here are drawn from the supplement of paper PMC12783771.

B1: library; numbered along this chain (parent)
chain: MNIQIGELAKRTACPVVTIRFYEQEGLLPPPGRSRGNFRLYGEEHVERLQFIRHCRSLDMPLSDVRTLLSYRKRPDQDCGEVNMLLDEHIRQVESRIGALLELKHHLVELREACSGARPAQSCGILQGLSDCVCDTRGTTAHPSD

Variants of: B1
assay method text: sfGFP reporter fluorescence (15 h) (µM FITC); higher = higher leak
details: library round: Round 0; ligand: none
Returns label 1 if the recorded sfGFP reporter fluorescence is greater than or equal to 0.06, and label 0 otherwise.

Completed entries (count: 2):
variant code: V108S
assigned label: label 0

variant code: R111P
assigned label: label 0

Decide: sfGFP reporter fluorescence of D64K K104V G128M >= 0.06?
label 1

Decide: sfGFP reporter fluorescence of `M60H` >= 0.06?
label 1

Decide: sfGFP reporter fluorescence of `I97H` >= 0.06?
label 0

Decide: sfGFP reporter fluorescence of `M60I` >= 0.06?
label 1

Decide: sfGFP reporter fluorescence of `R20V` >= 0.06?
label 1
